Target: T1, human VEGF165 (human, UniProt P15692)
T1 chain: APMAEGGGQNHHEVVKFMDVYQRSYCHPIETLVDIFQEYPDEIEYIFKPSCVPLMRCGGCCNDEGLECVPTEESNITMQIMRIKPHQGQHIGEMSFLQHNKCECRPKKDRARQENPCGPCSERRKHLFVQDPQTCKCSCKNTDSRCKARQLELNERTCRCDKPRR
Assay: SPR, pH 5
TEST READOUT: Kd
I'd appreciate it if you wrote the number followed by its unit.

Enquiry: Could you please provide reported Kd for 610-min (antibody, V domains shown) VH: EVQLVESGGGLVQPGGSLRLSCAASGIDFSGAYYMGWVRQAPGKGLEWVSYIDYDGDRYYASWAKGRFTISRDNSKNTLYLQMNSLRAEDTAVYYCAKSDYSSGWGTDIWGQGTLVTVSS VL: EIVMTQSPSTLSASVGDRVIITCQASQSISSWLSWYQQKPGKAPKLLIYQASTLASGVPSRFSGSGSGAEFTLTISSLQPDDFATYYCQNNYGFRSYGGAFGQGTKLTVLG ? Thanks!
Return: 10.6 nM

Enquiry: Could you please provide reported Kd for 578-max (antibody, V domains shown) VH: EVQLVESGGGLVQPGGSLRLSCTASGFSLTDYYYMTWVRQAPGKGLEWVGFIDPDDDPYYATWAKGRFTISRDTSKNTVYLQMNSLRAEDTAVYYCAGGDHNSGWGLDIWGQGTLVTVSS VL: EIVMTQSPSTLSASVGDRVIITCQASEIIHSWLAWYQQKPGKAPKLLIYLASTLASGVPSRFSGSGSGTQFTLTISSLQPDDFATYYCQNVYLASTNGANFGQGTKLTVLG ? Thanks!
Return: 0.439 nM

Enquiry: Could you please provide reported Kd for 511-max (antibody, V domains shown) VH: EVQLVESGGGLVQPGGSLRLSCTVSGFSLNTYYMNWVRQAPGKGLEWVGIIAPDDTTYYASWAKSRSTISRDTSKNTVYLQMNSLRAEDTAVYYCARSGDTTAWGADIWGQGTLVTVSS VL: EIVMTQSPSTLSASVGDRVIITCQASQSINIWLSWYQQKPGKAPKLLIYRASTLASGVPSRFSGSGSGTEFTLTISSLQPDDFATYYCQANYAYSAGYGAAFGQGTKLTVLG ? Thanks!
Return: 0.0667 nM

Enquiry: Could you please provide reported Kd for 534-max (antibody, V domains shown) VH: EVQLVESGGGLVQPGGSLRLSCTASGFSLSYYYMSWVRQAPGKGLEWVGIIGPGDYTDYASWAKGRFTISKDTSKNTVYLQMNSLRAEDTAVYYCARGDDNSGWGEDIWGQGTLVTVSS VL: EIVMTQSPSTLSASVGDRVIITCQASQSINIWLSWYQQKPGKAPKLLIYKESTLASGVPSRFSGSGSGTEFTLTISSLQPDDFATYYCQNNYDSGNNGFPFGQGTKLTVLG ? Thanks!
Return: 9.21 nM
